Target: T1, hCD112R mFC recombinant protein (human; murine, UniProt Q6DKI7 41-160)
T1 construct: range 41-160; expressed in 293E cells; also called hCD112R ECD mFC; hCD112R-ECD-mFC; not shown: murine IgG2a Fc domain (MX2-mFc vector)
T1 sequence (looked up): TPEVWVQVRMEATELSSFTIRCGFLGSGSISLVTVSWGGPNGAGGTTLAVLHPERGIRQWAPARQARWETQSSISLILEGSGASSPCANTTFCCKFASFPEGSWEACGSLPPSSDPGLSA
Assay: FACS competition, hCD112R mFc on CHO CD112 cells; IC50 COM701/IC50 antibody
The binders listed here are annotated with their Relative activity (%).
A number alone suffices; assume %.

Hu60 (antibody, IgG4, V domains shown, humanized IgG4) VH: EVQLVESGGGLVQPGGSLRLSCAASGFTFSSYHMSWIRQAPGKGLELVAAINSNGINTYYLDTVKGRFTISRDNAKNSLYLQMNSLRAEDTAVYYCARHEDYYGFAMDYWGQGTLVTVSS VL: EIVMTQSPPTLSLSPGERVTLSCKASQSVSNDVAWYQQKPGQAPRLLIYYVSNRFTGIPARFSGSGSGTDFTLTISSLQPEDFAVYFCQQAYRSPWTFGQGTKLEIK :: 69
Hu35 (antibody, IgG4, V domains shown, humanized IgG4) VH: EVQLVESGGGLVQPGGSLRLSCAASGFTFSSYHMSWVRQAPGKGLELVAAISRDGDSTYYPDTVKGRFTISRDDAENSLYLQMNSLRAEDTAVYYCSRHEDYFGFAMDSWGQGTLVTVSS VL: DIQMTQSPSSLSASVGDRVTITCKASQSVSNDVAWYQQKPGKAPKLLIYYVSNRFTGVPSRFSGSGSGTDFTLTISSLQPEDFATYFCQQAYRSPWTFGQGTKLEIK :: 105

Now look at this one.
Input line: State the recorded Relative activity (%) for this entry: Hu56 (antibody, IgG4, V domains shown, humanized IgG4) VH: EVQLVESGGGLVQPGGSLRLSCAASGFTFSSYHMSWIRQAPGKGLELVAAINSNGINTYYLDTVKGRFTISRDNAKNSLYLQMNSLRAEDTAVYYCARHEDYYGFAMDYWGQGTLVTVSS VL: AIQMTQSPSSLSASVGDRVTITCKASQSVTNDVAWYQQKPGKAPKLLIYYVSNHYTGVPSRFSGSGSGTDFTLTISSLQPEDFATYFCQQAYRSPWTFGQGTKLEIK
Output line: 71
